Target: T1, biotinylated hBLyS-ECD (human, UniProt Q9Y275 134-285, biotinylated with Biotin-X-X-NHS (molar ratio 7:1), sites not stated)
T1 construct: The hBLyS-ECD of Embodiment 1 after biotinylation (Embodiment 2); also called biotinylated immunogen; BLyS protein; not shown: His tag of the pCPC vector
T1 sequence (Q9Y275 134-285): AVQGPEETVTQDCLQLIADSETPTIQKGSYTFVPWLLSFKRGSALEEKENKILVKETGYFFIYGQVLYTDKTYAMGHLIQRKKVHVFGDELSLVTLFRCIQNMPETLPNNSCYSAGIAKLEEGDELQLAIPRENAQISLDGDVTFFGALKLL
Assay: ELISA, biotinylated hBLyS-ECD captured on streptavidin; antibody 0.107 nM
ASSAY READOUT: OD450 nm
Output: the number by itself.

• 97A3C2H4 (antibody, V domains shown, Mouse hybridoma antibody purified on Protein G) VH: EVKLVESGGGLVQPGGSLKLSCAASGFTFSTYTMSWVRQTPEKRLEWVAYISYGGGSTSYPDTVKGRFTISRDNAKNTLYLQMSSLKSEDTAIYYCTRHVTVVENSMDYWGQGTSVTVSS VL: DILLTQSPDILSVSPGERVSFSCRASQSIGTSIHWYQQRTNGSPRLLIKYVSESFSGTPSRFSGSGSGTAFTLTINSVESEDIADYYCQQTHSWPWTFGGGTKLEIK = 0.899

## Input Query (binder): 8E7D9C7F5 (antibody, V domains shown, Mouse hybridoma antibody purified on Protein G) VH: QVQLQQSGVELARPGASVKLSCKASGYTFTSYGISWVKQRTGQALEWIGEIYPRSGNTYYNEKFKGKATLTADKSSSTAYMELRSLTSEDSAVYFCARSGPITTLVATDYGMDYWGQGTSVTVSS VL: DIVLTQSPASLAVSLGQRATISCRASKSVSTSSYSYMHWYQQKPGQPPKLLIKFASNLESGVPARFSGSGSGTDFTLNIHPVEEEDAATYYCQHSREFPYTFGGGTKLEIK ; field requested: OD450 nm
## Output 0.946

## Input Query (binder): L9G7 (antibody, human IgG1, V domains shown) VH: QIQLVQSGAEVKKPGASVKVSCKASGYTFTSYGISWVRQAPGQGLEWMGWISAYNGNTNYAQKLQGRVTMTTDTSTSTAYMELRSLRSDDTAVYYCARTYYDILTGYYYYGMDVWGQGTTVTVSS VL: EIVLTQSPGTLSLSPGERATLSCRTSQSVDTYLAWYQQKPGQAPRLLIYDASNRATGIPARFSGSGSGTDFTLTISSLEPEDFAVYYCQQRSNWPLTFGGGTKVEIK ; field requested: OD450 nm
## Output 0.528

## Input Query (binder): 111D10D6G3 (antibody, V domains shown, Mouse hybridoma antibody purified on Protein G) VH: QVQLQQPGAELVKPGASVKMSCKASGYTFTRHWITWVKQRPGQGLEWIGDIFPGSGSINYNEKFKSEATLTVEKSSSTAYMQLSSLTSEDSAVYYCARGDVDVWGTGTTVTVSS VL: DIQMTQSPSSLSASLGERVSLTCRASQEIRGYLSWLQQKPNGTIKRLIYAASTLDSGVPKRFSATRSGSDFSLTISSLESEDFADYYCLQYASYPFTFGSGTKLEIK ; field requested: OD450 nm
## Output 0.613

## Input Query (binder): L1D12 (antibody, human IgG1, V domains shown, also called LID12) VH: QVQLVQSGGGLVQPGGSLRLSCAASGFTVSSNYMSWVRQAPGKGLEWVSVIYSGGSTYYADSVKGRFTISRDNSKNTLYLQMNSLRAEDTAVYYCARGFHDILTGYGMDVWGQGTTVTVSS VL: SSELTQDPAVSVALGQTVRITCQGDSLRNYYAGWYQQKPGQAPVLVIYGKNNRPSGIPDRFSGSSSGNTASLTITGTQAEDEADYYCSSRDNSGTHLVEFGGGTKLTVL ; field requested: OD450 nm
## Output 0.678

The values you see were collected from patent US20210347873A1.
